Documented viability at 20 µM across a set of compounds
Tested on: cancer cells
method_notes: Survival rate of cancer cells after test compound is added (flow cytometry, Annexin V-FITC/PI, clinical specimen)
Assay type: cell-based, patient
reported_conditions: Homo sapiens, 18 h, Retinoblastoma; 20.0 μM; read-out: Survival rate (%) All cells (Stem cells and ordinary cells)

{"given_smiles": "C=C1C(=O)O[C@H]2[C@H]1CCC(C)=C1CC[C@@](C)(OC(=O)CCCc3cn(CCCCCCO)nn3)[C@@H]12", "viability at 20 µM, %": 59}
{"given_smiles": "C=C1C(=O)O[C@@H]2[C@@H]3[C@@H](CC[C@@]3(C)O)[C@](C)(O)CC[C@@H]12", "viability at 20 µM, %": 89}
{"given_smiles": "C=C1C(=O)O[C@@H]2[C@H]3C(C)=CC[C@@]34O[C@@]4(C)CC[C@@H]12", "viability at 20 µM, %": 53}
{"given_smiles": "C=C1C(=O)O[C@H]2[C@H]1CC[C@]1(C)O[C@@]13CC[C@@](C)(O)[C@H]23", "viability at 20 µM, %": 69}

---

Tested on: cancer cells
method_notes: Survival rate of cancer cells after test compound is added (flow cytometry, Annexin V-FITC/PI, clinical specimen)
Format: cell-based, patient
reported_conditions: Homo sapiens, 18 h, Lung cancer; 20.0 μM; read-out: Survival rate (%) All cells (Stem cells and ordinary cells)
Documented viability at 20 µM across a set of molecules

{"molecule": "C=C1C(=O)O[C@H]2[C@H]1CC[C@@](C)(OC)C1CC[C@@](C)(O)[C@@H]12 (stereo partly shown)", "viability at 20 µM [%]": 86}
{"molecule": "[2H][C@@]1(CN(C)C)C(=O)O[C@@H]2[C@@H]3[C@@H](CCC34CC4)C3(CC[C@H]21)CC3", "viability at 20 µM [%]": 89}
{"molecule": "C=C1C(=O)O[C@@H]2[C@@H]3[C@@H](CCC34CC4)C3(CC[C@@H]12)CC3", "viability at 20 µM [%]": 84}
{"molecule": "CCOC(=O)[C@@H]1CCCN1C[C@@H]1C(=O)O[C@H]2[C@H]1CCC1(CC1)[C@@H]1CCC3(CC3)[C@H]21", "viability at 20 µM [%]": 87}
{"molecule": "C=C1C(=O)O[C@@H]2[C@@H]3[C@@H](CC[C@@]3(C)O)[C@](C)(O)CC[C@@H]12", "viability at 20 µM [%]": 82}

---

System: normal cells
method_notes: Survival rate of normal cells after test compound is added (flow cytometry, Annexin V-FITC/PI)
Type: cell-based
reported_conditions: 18 h, 20.0 μM, read-out: Survival rate (%) Stem cells
Text: […]

{"molecule": "C=C1C(=O)O[C@@H]2[C@@H]3[C@@H](CC[C@@]3(C)O)C(=C)CC[C@@H]12", "unit_spec": "%", "viability at 20 µM": 89}
{"molecule": "C=C1C(=O)O[C@H]2[C@H]1CC[C@]1(C)O[C@@]13CC[C@@](C)(O)[C@H]23", "unit_spec": "%", "viability at 20 µM": 90}
{"molecule": "C=C1C(=O)O[C@H]2[C@H]1CC[C@@](C)(OC)C1CC[C@@](C)(O)[C@@H]12 (stereo partly drawn)", "unit_spec": "%", "viability at 20 µM": 92}
{"molecule": "CN(C)C[C@@H]1C(=O)O[C@H]2[C@H]1CCC1(CC1)[C@@H]1CCC3(CC3)[C@H]21", "unit_spec": "%", "viability at 20 µM": 81}
{"molecule": "[2H][C@@]1(CN(C)C)C(=O)O[C@@H]2[C@@H]3[C@@H](CCC34CC4)C3(CC[C@H]21)CC3", "unit_spec": "%", "viability at 20 µM": 92}
{"molecule": "CCOC(=O)[C@@H]1CCCN1C[C@@H]1C(=O)O[C@H]2[C@H]1CCC1(CC1)[C@@H]1CCC3(CC3)[C@H]21", "unit_spec": "%", "viability at 20 µM": 92}

---

Tested on: cancer cells
method_notes: Survival rate of cancer cells after test compound is added (flow cytometry, Annexin V-FITC/PI, clinical specimen)
Format: cell-based, patient
reported_conditions: Homo sapiens, 18 h, Lung adenocarcinoma; 10.0 μM; read-out: Survival rate (%) All cells (Stem cells and ordinary cells)
viability at 10 µM under 80% gets YES, anything at or over 80% gets NO.

{"given_smiles": "CCOC(=O)[C@@H]1CCCN1C[C@@H]1C(=O)O[C@H]2[C@H]1CCC1(CC1)[C@@H]1CCC3(CC3)[C@H]21", "group": "NO"}
{"given_smiles": "C=C1CC[C@H]2C(=C)CC[C@H]3C(=C)C(=O)O[C@@H]3[C@@H]12", "group": "YES"}
{"given_smiles": "C=C1C(=O)O[C@@H]2[C@@H]3[C@@H](CC[C@@]3(C)O)[C@](C)(O)CC[C@@H]12", "group": "NO"}
{"given_smiles": "C=C1C(=O)O[C@@H]2[C@@H]3[C@@H](CC[C@@]3(C)O)C(=C)CC[C@@H]12", "group": "YES"}
{"given_smiles": "C=C1C(=O)O[C@H]2[C@H]1CCC(C)=C1CC[C@@](C)(OC(=O)CCCc3cn(CCCCCCO)nn3)[C@@H]12", "group": "YES"}
{"given_smiles": "CC1=C2CC[C@@](C)(O)[C@@H]2[C@H]2OC(=O)[C@@H](CN(C)C)[C@@H]2CC1", "group": "NO"}
{"given_smiles": "C=C1C(=O)O[C@@H]2[C@@H]3[C@@H](CCC34CC4)C3(CC[C@@H]12)CC3", "group": "NO"}

---

Tested on: cancer cells
method_notes: Survival rate of cancer cells after test compound is added (flow cytometry, Annexin V-FITC/PI, clinical specimen)
Format: cell-based, patient
reported_conditions: Homo sapiens, 18 h, Lung adenocarcinoma; 10.0 μM; read-out: Survival rate (%) All cells (Stem cells and ordinary cells)
reported_metric: viability at 10 µM

{"molecule": "C=C1C(=O)O[C@H]2[C@H]1CC[C@@](C)(OC)C1CC[C@@](C)(O)[C@@H]12 (stereo partly drawn)", "reported_metric": "viability at 10 µM", "observed_value": "92%"}
{"molecule": "C=C1C(=O)O[C@@H]2[C@H]3C(C)=CC[C@@]34O[C@@]4(C)CC[C@@H]12", "reported_metric": "viability at 10 µM", "observed_value": "57%"}
{"molecule": "C=C1C(=O)O[C@H]2[C@H]1CC[C@]1(C)O[C@@]13CC[C@@](C)(O)[C@H]23", "reported_metric": "viability at 10 µM", "observed_value": "78%"}
{"molecule": "[2H][C@@]1(CN(C)C)C(=O)O[C@@H]2[C@@H]3[C@@H](CCC34CC4)C3(CC[C@H]21)CC3", "reported_metric": "viability at 10 µM", "observed_value": "93%"}

---

Documented viability at 10 µM across a set of compounds
Tested on: cancer stem cells
method_notes: Survival rate of cancer stem cells after test compound is added (flow cytometry, Annexin V-FITC/PI, clinical specimen)
Type: cell-based, patient
reported_conditions: Homo sapiens, 18 h, Children hepatoblastoma; 10.0 μM

{"compound": "C=C1C(=O)O[C@@H]2[C@@H]3[C@@H](CC[C@@]3(C)O)C(=C)CC[C@@H]12 [Compound 48]", "viability at 10 µM (%)": 68}
{"compound": "C=C1C(=O)O[C@@H]2[C@H]3C(C)=CC[C@@]34O[C@@]4(C)CC[C@@H]12 [Compound 50]", "viability at 10 µM (%)": 42}
{"compound": "CC1=C2CC[C@@](C)(O)[C@@H]2[C@H]2OC(=O)[C@@H](CN(C)C)[C@@H]2CC1 [Compound 23]", "viability at 10 µM (%)": 85}
{"compound": "C=C1C(=O)O[C@H]2[C@H]1CCC(C)=C1CC[C@@](C)(OC(=O)CCCc3cn(CCCCCCO)nn3)[C@@H]12 [Compound 21]", "viability at 10 µM (%)": 74}

---

System: cancer stem cells
method_notes: Survival rate of cancer stem cells after test compound is added (flow cytometry, Annexin V-FITC/PI, clinical specimen)
Assay type: cell-based, patient
reported_conditions: Homo sapiens, 18 h, AML; 20.0 μM

{"given_smiles": "C=C1C(=O)O[C@H]2[C@H]1CCC(C)=C1CC[C@@](C)(OC(=O)CCCc3cn(CCCCCCO)nn3)[C@@H]12", "unit_spec": "%", "viability at 20 µM": 47}
{"given_smiles": "C=C1C(=O)O[C@@H]2[C@@H]3[C@@H](CC[C@@]3(C)O)C(=C)CC[C@@H]12", "unit_spec": "%", "viability at 20 µM": 38}
{"given_smiles": "C=C1C(=O)O[C@@H]2[C@H]3C(C)=CC[C@@]34O[C@@]4(C)CC[C@@H]12", "unit_spec": "%", "viability at 20 µM": 36}
{"given_smiles": "C=C1CC[C@H]2C(=C)CC[C@H]3C(=C)C(=O)O[C@@H]3[C@@H]12", "unit_spec": "%", "viability at 20 µM": 26}
{"given_smiles": "C=C1C(=O)O[C@H]2[C@H]1CC[C@]1(C)O[C@@]13CC[C@@](C)(O)[C@H]23", "unit_spec": "%", "viability at 20 µM": 39}
{"given_smiles": "[2H][C@@]1(CN(C)C)C(=O)O[C@@H]2[C@@H]3[C@@H](CCC34CC4)C3(CC[C@H]21)CC3", "unit_spec": "%", "viability at 20 µM": 74}
{"given_smiles": "CC1=C2CC[C@@](C)(O)[C@@H]2[C@H]2OC(=O)[C@@H](CN(C)C)[C@@H]2CC1", "unit_spec": "%", "viability at 20 µM": 72}
